Biological target: T1, human glycophorin A on human red blood cells or red blood cell membranes (human, UniProt P02724 20-150)
T1 construct: whole, on cells; also called hRBC; human RBC membranes
T1 sequence (looked up): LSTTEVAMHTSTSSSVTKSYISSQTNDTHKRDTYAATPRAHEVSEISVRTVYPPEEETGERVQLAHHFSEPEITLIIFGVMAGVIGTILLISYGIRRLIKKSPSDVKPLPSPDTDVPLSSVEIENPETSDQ
Assay: Fab on intact human RBC, unbound Fab by ELISA; 5 min after 200-fold dilution
Returns: string. Value is True if measured percentage of input antibody bound is below 90%, and False if it is greater than or equal to it.

Query: For this binder, is percentage of input antibody bound lower than 90%? TPP-7782, affinity matured 6C12 Fab (Fab, V domains shown, Tested as Fab) VH: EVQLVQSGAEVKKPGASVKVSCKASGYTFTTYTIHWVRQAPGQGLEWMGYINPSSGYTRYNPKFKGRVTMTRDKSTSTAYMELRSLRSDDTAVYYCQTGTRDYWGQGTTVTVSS VL: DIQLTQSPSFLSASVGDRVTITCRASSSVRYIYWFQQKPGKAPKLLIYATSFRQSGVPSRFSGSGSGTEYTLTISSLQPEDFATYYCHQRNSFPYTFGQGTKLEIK
Reply: True

Query: Similarly, TPP-7783, affinity matured 6C12 Fab (Fab, V domains shown, Tested as Fab) VH: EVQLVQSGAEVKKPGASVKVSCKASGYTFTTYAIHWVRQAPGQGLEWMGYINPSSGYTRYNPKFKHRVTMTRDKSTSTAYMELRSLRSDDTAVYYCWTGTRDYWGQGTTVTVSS VL: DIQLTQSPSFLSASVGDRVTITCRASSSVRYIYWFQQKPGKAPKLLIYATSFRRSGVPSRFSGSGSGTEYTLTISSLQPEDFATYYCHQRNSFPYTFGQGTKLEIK ?
Reply: True

Query: Now try TPP-7795, affinity matured 6C12 Fab (Fab, V domains shown, Tested as Fab) VH: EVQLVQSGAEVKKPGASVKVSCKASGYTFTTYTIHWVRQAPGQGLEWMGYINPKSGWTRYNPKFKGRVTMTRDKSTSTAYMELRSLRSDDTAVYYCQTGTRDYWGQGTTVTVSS VL: DIQLTQSPSFLSASVGDRVTITCRASSSVSYIYWFQQKPGKAPKLLIYATSFLQSGVPSRFSGSGSGTEYTLTISSLQPEDFATYYCHQRNSFPYTFGQGTKLEIK .
Reply: True

Query: Now the binder TPP-7797, affinity matured 6C12 Fab (Fab, V domains shown, Tested as Fab) VH: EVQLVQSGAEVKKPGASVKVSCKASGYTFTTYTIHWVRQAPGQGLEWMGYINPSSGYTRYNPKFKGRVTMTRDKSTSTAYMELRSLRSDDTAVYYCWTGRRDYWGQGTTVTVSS VL: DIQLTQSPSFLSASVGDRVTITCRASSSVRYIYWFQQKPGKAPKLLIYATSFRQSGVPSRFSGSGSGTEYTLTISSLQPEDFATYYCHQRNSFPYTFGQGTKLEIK
Reply: False

Query: Another binder to check: TPP-7792, affinity matured 6C12 Fab (Fab, V domains shown, Tested as Fab with a 6xHIS tag) VH: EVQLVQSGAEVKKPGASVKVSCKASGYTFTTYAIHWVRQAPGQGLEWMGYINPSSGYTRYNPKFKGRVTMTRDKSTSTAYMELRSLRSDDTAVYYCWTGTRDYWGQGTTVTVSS VL: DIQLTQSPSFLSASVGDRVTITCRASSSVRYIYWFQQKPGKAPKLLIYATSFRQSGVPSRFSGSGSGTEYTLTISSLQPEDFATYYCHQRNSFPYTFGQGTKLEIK
Reply: False

Query: Field entry: TPP-7796, affinity matured 6C12 Fab (Fab, V domains shown, Tested as Fab) VH: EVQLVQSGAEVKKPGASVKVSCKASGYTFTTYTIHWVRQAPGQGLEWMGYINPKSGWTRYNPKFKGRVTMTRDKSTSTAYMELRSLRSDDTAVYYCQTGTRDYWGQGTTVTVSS VL: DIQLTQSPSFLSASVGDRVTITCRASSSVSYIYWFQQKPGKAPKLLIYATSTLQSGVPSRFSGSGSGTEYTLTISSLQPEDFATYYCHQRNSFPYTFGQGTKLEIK
Reply: True

Query: Again, but for TPP-7781, affinity matured 6C12 Fab (Fab, V domains shown, Tested as Fab) VH: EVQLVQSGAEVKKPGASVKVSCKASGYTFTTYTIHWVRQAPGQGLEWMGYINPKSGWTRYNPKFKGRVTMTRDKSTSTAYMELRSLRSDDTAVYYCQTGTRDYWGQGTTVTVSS VL: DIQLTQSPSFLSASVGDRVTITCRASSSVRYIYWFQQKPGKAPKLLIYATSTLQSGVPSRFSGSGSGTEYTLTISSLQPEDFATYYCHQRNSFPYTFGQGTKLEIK
Reply: True
